tested on: HUVEC; test: Inhibition of HUVEC (EC) proliferation, continuous exposure, CyQUANT DNA dye; details: Homo sapiens, 72 h, read-out: concentration that inhibited EC proliferation by 50% (EC50)
pEC50: −log10 of the molar value.
quantity-kind: pEC50

* CO[C@@H]1[C@H](OC(=O)N2CC(CCN3CCOCC3)C2)CC[C@]2(CO2)[C@H]1[C@@]1(C)O[C@@H]1CC=C(C)C [Compound A] | 9.62
